# Test system: HCV replicon, genotype-1a variant with glutamine 30 changed to glutamate in the NS5A protein
# procedure text: microbe, parasite or virus in culture
# Assay type: cell-based, HCV genotype 1a
# run parameters: HCV replicon genotype 1a Q30E (Q→E) variant; test compound titrated with an NS5A-targeting compound (BMS-790052 fixed at 200 nM); ranking of synergist activity

compound	Fold-Synergistic 1a (Q30E)
CC(C)(C)[C@H](NC(=O)C1CCCOC1)c1nc(-c2ccc(-c3ccc(-c4c[nH]c([C@@H](NC(=O)C5CCCOC5)C(C)(C)C)n4)cc3)cc2)c[nH]1 (some centres unmarked) [Compound W-131]	>100 fold
CC(C)[C@H](NC(=O)C(=O)N1C[C@@H](C)O[C@@H](C)C1)c1nc(-c2ccc(-c3ccc(-c4c[nH]c([C@@H](NC(=O)C(=O)N5C[C@@H](C)O[C@@H](C)C5)C(C)C)n4)cc3)cc2)c[nH]1 [Compound W-54]	>100 fold
CC(C)(C)OC(=O)NC1CCC(C(=O)N[C@H](c2nc(-c3ccc(-c4ccc(-c5c[nH]c([C@@H](NC(=O)C6CCC(NC(=O)OC(C)(C)C)CC6)C(C)(C)C)n5)cc4)cc3)c[nH]2)C(C)(C)C)CC1 (some centres unmarked) [Compound S-270]	>100 fold
CC(C)(C)[C@H](NC(=O)[C@H]1C[C@@](C)(O)C1)c1nc(-c2ccc(-c3ccc(-c4c[nH]c([C@@H](NC(=O)[C@H]5C[C@@](C)(O)C5)C(C)(C)C)n4)cc3)cc2)c[nH]1 [Compound W-169]	>100 fold
CCC(C)CC(=O)N1CCC[C@H]1c1ncc(-c2ccc(-c3ccc(-c4cnc([C@@H]5CCCN5C(=O)CC(C)CC)[nH]4)cc3)cc2)[nH]1 (some centres unmarked) [Compound S-172]	>10 fold
